Target: CD33 (Sino Biological, Cat #12238-H08H) (UniProt P20138 18-259)
Sequence (P20138 18-259 limits assumed): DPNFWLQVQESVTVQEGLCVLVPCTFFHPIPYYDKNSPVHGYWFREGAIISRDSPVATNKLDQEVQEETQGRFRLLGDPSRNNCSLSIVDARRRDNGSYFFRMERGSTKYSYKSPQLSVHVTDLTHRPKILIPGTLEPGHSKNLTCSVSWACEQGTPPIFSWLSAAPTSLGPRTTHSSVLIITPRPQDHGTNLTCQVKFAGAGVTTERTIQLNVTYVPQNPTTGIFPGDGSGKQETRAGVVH
Assay: BLI, IgG captured on anti-human Fc sensor, 50 nM CD33, pH 7.4 vs pH 5.4
test-readout: binding result

MYT1341 (antibody, V domains shown, IgG; vadastuximab VH variant #7 (Y32H)) VH: QVQLVQSGAEVKKPGASVKVSCKASGYTFTNHDINWVRQAPGQGLEWIGWIYPGDGSTKYNEKFKAKATLTADTSTSTAYMELRSLRSDDTAVYYCASGYEDAMDYWGQGTTVTVSS VL: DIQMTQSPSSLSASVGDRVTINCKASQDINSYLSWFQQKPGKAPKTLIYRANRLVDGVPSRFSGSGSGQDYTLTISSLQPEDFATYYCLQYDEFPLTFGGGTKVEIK = binds
MYT1596 (antibody, V domains shown, IgG; gemtuzumab VL variant #7 (D30H)) VH: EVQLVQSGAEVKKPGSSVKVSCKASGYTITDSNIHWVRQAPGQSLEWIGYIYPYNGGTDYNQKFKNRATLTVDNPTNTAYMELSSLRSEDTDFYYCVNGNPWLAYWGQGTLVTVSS VL: DIQLTQSPSTLSASVGDRVTITCRASESLHNYGIRFLTWFQQKPGKAPKLLMYAASNQGSGVPSRFSGSGSGTEFTLTISSLQPDDFATYYCQQTKEVPWSFGQGTKVEVK = binds
MYT1361 (antibody, V domains shown, IgG; vadastuximab VH variant #27 (A66H)) VH: QVQLVQSGAEVKKPGASVKVSCKASGYTFTNYDINWVRQAPGQGLEWIGWIYPGDGSTKYNEKFKHKATLTADTSTSTAYMELRSLRSDDTAVYYCASGYEDAMDYWGQGTTVTVSS VL: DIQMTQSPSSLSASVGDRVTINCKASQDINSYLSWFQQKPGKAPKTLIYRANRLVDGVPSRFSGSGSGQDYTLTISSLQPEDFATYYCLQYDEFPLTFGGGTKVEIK = binds

Just for reference, patent US20220324969A1 is where these values come from.
